Target: HLA-A*29:02
Experiment: IEDB peptide-MHC binding, purified MHC/direct/fluorescence; filed as Kd, often an IC50 or EC50 that approximates it; bounds were set here for any values at or beyond the usual limits of such assays
Conditions: source organism: Listeria monocytogenes serotype 4b str. H7858
endpoint.name: Kd (nM)

{"columns": ["seq.string", "assayed.system", "endpoint.name", "units.of.measure", "recorded.result"],
 "data": [
  ["AALEGLSGF", "HLA-A*29:02", "Kd", "nM", 542]
]}

###

Target: HLA-A*30:01
Assay: IEDB peptide-MHC binding, purified MHC/direct/fluorescence; filed as Kd, often an IC50 or EC50 that approximates it; bounds were set here for any values at or beyond the usual limits of such assays
Details: source organism: Collimonas fungivorans
endpoint.name: Kd (nM)

{"columns": ["seq.string", "recorded.result"],
 "data": [
  ["AYSPFAFKK", 9.79]
]}

###

Molecular target: HLA-A*02:11
Assay: IEDB peptide-MHC binding, purified MHC/competitive/fluorescence; filed as Kd, often an IC50 or EC50 that approximates it; bounds were set here for any values at or beyond the usual limits of such assays
Conditions: source organism: Escherichia coli O157:H7 str. Sakai
pKd: −log10 of the molar value.
endpoint.name: pKd

{"columns": ["seq.string", "assayed.system", "endpoint.name", "recorded.result"],
 "data": [
  ["HQIWLALRY", "HLA-A*02:11", "pKd", "≤ 4.70"]
]}

###

Target: HLA-A*26:03
Experiment: IEDB peptide-MHC binding, purified MHC/direct/fluorescence; filed as Kd, often an IC50 or EC50 that approximates it; bounds were set here for any values at or beyond the usual limits of such assays
Settings: source organism: Influenza B virus (B/Beijing/184/93)

{"columns": ["seq.string", "assayed.system", "Kd"],
 "data": [
  ["TKDAERGKL", "HLA-A*26:03", "≥ 20 µM"]
]}

###

Molecular target: HLA-B*08:01
Experiment: IEDB peptide-MHC binding, purified MHC/direct/fluorescence; filed as Kd, often an IC50 or EC50 that approximates it; bounds were set here for any values at or beyond the usual limits of such assays
Details: source organism: Coxiella burnetii Q321
pKd: −log10 of the molar value.

{"columns": ["seq.string", "assayed.system", "pKd"],
 "data": [
  ["YLRRRIGMI", "HLA-B*08:01", 8.22]
]}

###

Kd values, listed per item
Biological target: HLA-A*68:01
Assay: IEDB peptide-MHC binding, purified MHC/competitive/radioactivity; filed as Kd, often an IC50 or EC50 that approximates it; bounds were set here for any values at or beyond the usual limits of such assays
Details: source organism: Vaccinia virus Copenhagen

{"columns": ["seq.string", "assayed.system", "Kd / nM"],
 "data": [
  ["PVYISQFSYK", "HLA-A*68:01", 95.2],
  ["SVLDIISSK", "HLA-A*68:01", 184]
]}

###

Molecular target: HLA-A*02:03
Test: IEDB peptide-MHC binding, purified MHC/competitive/radioactivity; filed as Kd, often an IC50 or EC50 that approximates it; bounds were set here for any values at or beyond the usual limits of such assays
Conditions: source organism: Dengue virus 2 Peru/IQT2913/1996
pKd: −log10 of the molar value.
endpoint.name: pKd

{"columns": ["seq.string", "recorded.result"],
 "data": [
  ["MIIMLIPTV", 8.36]
]}
